Listed below are compounds with Ki for human leukocyte elastase (HLE) (Homo sapiens, UniProt P08246), each taken from published literature.
Give just the numeric value; nM need not be written.

Example entries begin here.
| compound | measured_parameter | reported |
| --- | --- | --- |
| CC(C)CCC1C(=O)N(COC(=O)c2c(Cl)cccc2Cl)S(=O)(=O)N1C (centres unmarked) | Ki | 0.06 |
| CC(C)C[C@H](NC(=O)[C@H](Cc1cccc2ccccc12)NC(=O)OCc1ccccc1)B1O[C@@H]2C[C@@H]3C[C@@H](C3(C)C)[C@]2(C)O1 | Ki | 150 |
| COc1cc(C(C)C)c2c(c1)S(=O)(=O)N(COc1cc(C(F)(F)F)nn1-c1ccc(Cl)nn1)C2=O | Ki | 0.055 |
| CC(C)CC(C=O)N(Cc1ccccc1)S(=O)(=O)N(C)C (centres unmarked) | Ki | 21000 |

Consider the compound O=C1C2CCCCN2S(=O)(=O)N1CSc1nnnn1-c1ccccc1 (centres unmarked) and give its recorded Ki.
85

Read the entry "COc1cc(C(C)C)c2c(c1)S(=O)(=O)N(COc1cc(C(F)(F)F)nn1-c1ccc([N+](=O)[O-])cc1)C2=O" and write its reported Ki.
0.089

Give the reported Ki for this compound. "COc1cc(C(C)C)c2c(c1)S(=O)(=O)N(COc1cc(C)nn1-c1ccc([N+](=O)[O-])cc1)C2=O"
0.076

Tell us which Ki value is on record for CC(C)C1C(=O)N(CSc2nnnn2-c2ccccc2)S(=O)(=O)N1C (centres unmarked)
200
